- Experimental Protocol: gradient 5% acetonitrile 3 min, to 50% in 2 min, to 85% in 15 min, held 3 min, 100 µL/min
- Assay Context: column: Zorbax Extend-C18 2.1 x 50 mm; eluents: water / acetonitrile, 0.1% formic acid
Measurement Kind: RP-LC retention time (s)

Please review the following examples before continuing.
- Compound: "COc1ccc(NC(=O)C2=Cc3ccccc3OC=C2)c(OC)c1"
  Units Of Measure: "s"
  RP-LC retention time: 1030
- Compound: "CCN(CC)S(=O)(=O)c1ccc2c(c1)cc(C(=O)N1CCN(c3ncccn3)CC1)n2C"
  Units Of Measure: "s"
  RP-LC retention time: 880
- Compound: "O=C(Cn1cnc2ccccc2c1=O)N1CCC(Cn2cccn2)CC1"
  Units Of Measure: "s"
  RP-LC retention time: 616
- Compound: "COc1ccc(OC)c(Nc2c(-c3ccc(C)cc3)nc3cnccn23)c1"
  Units Of Measure: "s"
  RP-LC retention time: 911
- Compound: "COc1ccc(OC)c(NC(=O)Cn2c(=O)n(-c3ccccc3)c3ncccc32)c1"
  Units Of Measure: "s"
  RP-LC retention time: 841
- Compound: "CCn1c(CCC(=O)NCc2ccccc2OC)nc2ccc(C)cc2c1=O"
  Units Of Measure: "s"
  RP-LC retention time: 817
- Compound: "COc1cc(OC)c(NC(=O)COc2cc(C)nc(N3CCCCCC3)n2)cc1Cl"
  Units Of Measure: "s"
  RP-LC retention time: 659
- Compound: "Cc1cccc(CNC(=O)c2cc3n(n2)CC(C)(C(=O)NC2CCCC2)N(C)C3=O)c1 (stereo not drawn)"
  Units Of Measure: "s"
  RP-LC retention time: 731
- Compound: "Cc1nnc(N2CCC(C(=O)NCCCN3CCCC3=O)CC2)c2nn(-c3ccccc3)c(C)c12"
  Units Of Measure: "s"
  RP-LC retention time: 622
- Compound: "Cc1ccccc1-c1noc(Cn2c(=O)n(-c3ccccc3F)c(=O)c3sccc32)n1"
  Units Of Measure: "s"
  RP-LC retention time: 1030

I: CCOc1cc2c(cc1OCC)C1C(C(=O)NCc3ccc(C)o3)c3ccccc3C(=O)N1CC2 (stereo not drawn)
II: CCOCC(=O)N1C[C@@H]2CCCN3CCC[C@@H]([C@H]23)[C@H]1CCCC(=O)NCC1CC1
Among I and II , whose measured RP-LC retention time is the smaller figure? Choose, then provide that item's label.
II

1: CS(=O)(=O)Nc1cccc(NC(=O)c2cc(-c3cccs3)[nH]n2)c1
2: CCc1nc(-c2csc(S(=O)(=O)N3CCCC(C(=O)NCc4ccccc4C)C3)c2)no1 (stereo not drawn)
Between the two listed entries 1 and 2 , which has its RP-LC retention time at the higher number? Choose, then provide that item's label.
2
(2: 1010 s, 1: 699 s)

----------
- Experimental Protocol: gradient 5% acetonitrile 3 min, to 50% in 2 min, to 85% in 15 min, held 3 min, 100 µL/min
- Assay Context: column: Zorbax Extend-C18 2.1 x 50 mm; eluents: water / acetonitrile, 0.1% formic acid
Measurement Kind: RP-LC retention time (s)

a: CN1CC(c2nc(C3CC3)no2)C2(CCN(C(=O)c3ccc4c(c3)OCO4)CC2)C1 (centres undefined)
b: Cc1cccc(Cn2c(=O)n(CCNC(=O)C3(c4ccccc4)CC3)c3ncccc32)c1
Among a and b , whose measured RP-LC retention time is the smaller figure? Choose, then provide that item's label.
a

P: CC1=C(C(=O)N2CCOCC2)C(c2ccc(Br)cc2)C2=C(CCCC2=O)N1 (centres undefined)
Q: CCOC(=O)c1cccc(Nc2c(-c3ccc(Br)cc3)nc3cnccn23)c1
Among P and Q , whose measured RP-LC retention time is the smaller figure? Choose, then provide that item's label.
P

1: Cc1cc(C(=O)N2C[C@@H](CO)[C@H](c3nc(C4CC4)no3)C2)c(C)o1
2: O=C(Nc1cc(F)ccc1Cl)c1cnc(-c2ccc(F)cc2)nc1-c1ccncc1
Between the two listed entries 1 and 2 , which has its RP-LC retention time at the higher number? Choose, then provide that item's label.
2

A: CC1=C(c2ccc(Cl)cc2)S(=O)(=O)N=C1N1CCCN(C(=O)NC(C)(C)C)CC1
B: O=C(c1ccoc1)N1CCCC(c2nnc3n2CCN(C2CCCC2)C3)C1 (centres undefined)
Between the two listed entries A and B , which has its RP-LC retention time at the higher number? Choose, then provide that item's label.
A

1: Cn1cc(CCNC(=O)Nc2ccc3c(c2)OCCO3)c2cccnc21
2: CC(=O)N1c2ccc(S(=O)(=O)N3CCCCCC3)cc2CC1C(=O)NCc1ccc(C)cc1 (centres undefined)
Between the two listed entries 1 and 2 , which has its RP-LC retention time at the higher number? Choose, then provide that item's label.
2

a: Cc1nc2nc(-c3ccc(C(C)(C)C)cc3)nn2c(C)c1CC(=O)NC(C)C
b: CO/N=C1/CN(c2nc3c(cc2F)c(=O)c(C(=O)O)cn3C2CC2)CC1CN (centres undefined)
Among a and b , whose measured RP-LC retention time is the smaller figure? Choose, then provide that item's label.
b

A: Cc1cccn2cc(C(=O)NCc3ccc4c(c3)OCO4)nc12
B: COc1ccc(-c2noc(C3CCCN3C(=O)Nc3ccccc3Br)n2)cc1 (centres undefined)
Among A and B , whose measured RP-LC retention time is the smaller figure? Choose, then provide that item's label.
A

----------
- Experimental Protocol: gradient 5% acetonitrile 3 min, to 50% in 2 min, to 85% in 15 min, held 3 min, 100 µL/min
- Assay Context: column: Zorbax Extend-C18 2.1 x 50 mm; eluents: water / acetonitrile, 0.1% formic acid
Measurement Kind: RP-LC retention time (s)

Please review the following examples before continuing.
- Compound: "CC(=O)N1CCc2cc(S(=O)(=O)NCCn3nc(-c4cccs4)ccc3=O)ccc21"
  Number: 650
- Compound: "Cc1cc(NC(=O)c2ccc(S(=O)(=O)Nc3ccc4c(c3)OCO4)o2)no1"
  Number: 737
- Compound: "COc1ccc(CNC(=O)C2CCCN(c3nnc4ccc(Cl)cn34)C2)cc1 (stereo not drawn)"
  Number: 657
- Compound: "O=C(Nc1c(-c2ccc(F)cc2)nc2ccccn12)c1ccc(F)cc1"
  Number: 671
- Compound: "CC(C)Cn1cc(S(=O)(=O)NCc2cccc(Cl)c2)c2cccnc21"
  Number: 1020
- Compound: "O=C1/C(=C/c2ccc([N+](=O)[O-])cc2)CCc2ccccc21"
  Number: 1160
- Compound: "Cc1ccc(C)c(NC(=O)C(=O)NCC(c2ccc3c(c2)CCCN3C)N2CCCC2)c1 (stereo not drawn)"
  Number: 746
- Compound: "CNC(=O)c1ccc(-c2nc3cc(NS(=O)(=O)c4ccc(C(C)C)cc4)ccc3n2C)cc1"
  Number: 713
- Compound: "CCOC(=O)c1c(C)[nH]c(C(=O)N2CCCC(C(=O)NCc3ccc(C)o3)C2)c1C (stereo not drawn)"
  Number: 790
- Compound: "CC(C)NC(=O)c1ccc(OCC2CCCN(C(=O)c3c(F)cccc3F)C2)cc1 (stereo not drawn)"
  Number: 841

I: COc1ccc(C)cc1NC(=O)N1CCC2(CC1)NC(=O)c1ccc(Cl)cc1N2C
II: Cn1cc(CC(=O)NCC#CCN2CCc3ccccc3C2)c2ccccc21
Between the two listed entries I and II , which has its RP-LC retention time at the higher number? Choose, then provide that item's label.
I

----------
- Experimental Protocol: gradient 5% acetonitrile 3 min, to 50% in 2 min, to 85% in 15 min, held 3 min, 100 µL/min
- Assay Context: column: Zorbax Extend-C18 2.1 x 50 mm; eluents: water / acetonitrile, 0.1% formic acid
Measurement Kind: RP-LC retention time (s)

Please review the following examples before continuing.
- Compound: "O=C(NCCn1c(=O)n(Cc2ccccc2)c2cccnc21)c1nccc2ccccc12"
  RP-LC retention time, s: 836
- Compound: "Cc1cccc(CC(=O)NCC2CCN(Cc3ccccc3)CC2)c1"
  RP-LC retention time, s: 566
- Compound: "COCCc1nncn1C1CCN(C(=O)c2ccccc2OC(F)(F)F)CC1"
  RP-LC retention time, s: 646
- Compound: "COc1ccc(N2CC(c3noc(-c4cc(OC)c(OC)c(OC)c4)n3)CC2=O)cc1OC (stereo not drawn)"
  RP-LC retention time, s: 813

I: O=C(Cn1cc(S(=O)(=O)c2ccccc2)c2ccccc21)NCc1ccc2c(c1)OCO2
II: COc1ccc(Cl)cc1NC(=O)c1c(O)c2cccnc2n(-c2cccc(F)c2)c1=O
III: NC(=O)C1CCN(C2CC(=O)N(c3ccc4c(c3)OCCO4)C2=O)CC1 (stereo not drawn)
Please rank these compounds by RP-LC retention time in descending order. Put the labels in the requested order and write them down.
II, I, III
(II: 1330 s, I: 829 s, III: 568 s)

P: Cc1cc(C)n(Cc2nc(-c3ccc(NC(=O)C4CCCC4)cc3)oc2C)n1
Q: CCCOC(=O)c1[nH]c2c(c1C)C(=O)CC(c1cc(OC)c(OC)c(OC)c1)C2 (stereo not drawn)
Between the two listed entries P and Q , which has its RP-LC retention time at the higher number? Choose, then provide that item's label.
P
(P: 931 s, Q: 610 s)

Where do these numbers come from? They come from the METLIN SMRT retention time set (Domingo-Almenara et al. 2019).
